- measured_on: T1, HpFurH134Y (Helicobacter pylori, UniProt O25671 1-150, H134Y)
- T1 sequence: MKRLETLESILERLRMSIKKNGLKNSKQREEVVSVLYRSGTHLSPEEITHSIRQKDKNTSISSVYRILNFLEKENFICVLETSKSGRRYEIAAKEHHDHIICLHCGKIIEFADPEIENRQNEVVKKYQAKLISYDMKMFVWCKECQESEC
- protocol_text: fluorescence anisotropy
pKd: −log10 of the molar value.

[
  {
    "binder": "amiE Fur box duplex (dsDNA) DNA 1: TGCCCCAATAATCATAATGATTAA DNA 2: TTAATCATTATGATTATTGGGGCA",
    "pKd": 8.22
  }
]

Source of measurements: paper PMC3713617
